- Test System: Estrogenic Receptor of Mouse Uterus (Mus musculus)
- Construct: their uteri were removed, then homogenized at 0° C; from tissue; host or cells: uterine cytosol (105,000 g supernatant) of immature female mice
- Protocol: Relative affinity of the bond, estrogen receptor (tritiated estradiol displacement)
- Assay type: binding
- Measurement Parameters: incubation 6 H (second time); RAB=100(CH)/(CX)
Property: Relative affinity of the bond (RAB), Oestrogen, 6 H

{"Smiles Code": "CCCCN(C)C(=O)CCCCCC#Cc1ccc([C@H]2C[C@]3(C)[C@@H](O)CC[C@H]3[C@@H]3CCc4cc(O)ccc4[C@H]32)cc1", "Measured Value": 12}

[a] CC#C[C@]1(O)CC[C@H]2[C@@H]3CCC4=CC(=O)CCC4=C3[C@@H](CCCCCCCCCCC(=O)NCCCC)C[C@@]21C
[b] CCCCN(C)C(=O)CCCCCCCCCCC[C@H]1C[C@]2(C)[C@@H](O)CC[C@H]2[C@@H]2CCc3cc(O)ccc3[C@@H]12
-- ask For a and b , which recorded Relative affinity of the bond (RAB), Oestrogen, 6 H is lower? Identify your pick by its label.
-- reply a
(a: 0.01, b: 13)

----------
- Test System: Estrogenic Receptor of Mouse Uterus (Mus musculus, UniProt P19785)
- Construct: their uteri were removed, then homogenized at 0° C; from tissue; host or cells: uterine cytosol (105,000 g supernatant) of immature female mice
- Sequence (P19785 whole entry): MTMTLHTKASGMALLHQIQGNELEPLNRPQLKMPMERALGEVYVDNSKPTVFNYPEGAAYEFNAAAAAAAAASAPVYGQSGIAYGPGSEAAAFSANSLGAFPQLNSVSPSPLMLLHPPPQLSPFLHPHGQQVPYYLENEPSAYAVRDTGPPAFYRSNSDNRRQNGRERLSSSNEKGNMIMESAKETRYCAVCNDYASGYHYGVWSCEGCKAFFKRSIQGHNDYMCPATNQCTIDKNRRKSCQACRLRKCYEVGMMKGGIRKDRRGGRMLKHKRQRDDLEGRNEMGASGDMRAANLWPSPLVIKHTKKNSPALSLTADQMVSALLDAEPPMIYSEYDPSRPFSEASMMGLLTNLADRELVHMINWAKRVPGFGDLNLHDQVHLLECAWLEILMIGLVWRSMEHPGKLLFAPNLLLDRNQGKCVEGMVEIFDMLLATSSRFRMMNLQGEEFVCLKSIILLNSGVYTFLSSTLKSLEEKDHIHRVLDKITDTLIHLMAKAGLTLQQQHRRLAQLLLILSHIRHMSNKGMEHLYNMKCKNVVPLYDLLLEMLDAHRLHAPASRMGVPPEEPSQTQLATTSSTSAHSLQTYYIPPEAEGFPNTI
- Protocol: Relative affinity of the bond, estrogen receptor (tritiated estradiol displacement)
- Type: binding
- Measurement Parameters: incubation time 5 Hrs; second part of the table; RAB=100(CH)/(CX)
Property: Relative affinity of the bond (RAB), Oestrogen Receptors, 5 Hrs

In the examples that follow, each entry is paired with its recorded Relative affinity of the bond (RAB), Oestrogen Receptors, 5 Hrs.
{"Compound": "CCCCN(C)C(=O)CSCCCCCc1ccc([C@H]2C[C@]3(C)[C@@H](O)CC[C@H]3[C@@H]3CCc4cc(O)ccc4[C@H]32)cc1 [Example 86]", "Measured Value": 11.7}
{"Compound": "CCCCN(C)C(=S)COCCCCCOc1ccc([C@H]2C[C@]3(C)[C@@H](O)CC[C@H]3[C@@H]3CCc4cc(O)ccc4[C@H]32)cc1 [Example 78]", "Measured Value": 20}
{"Compound": "CCCCN(C)C(=O)COCCCCCCOc1ccc([C@H]2C[C@]3(C)[C@@H](O)CC[C@H]3[C@@H]3CCc4cc(O)ccc4[C@H]32)cc1 [Example 83]", "Measured Value": 29}

[1] CCCCN(C)C(=O)CCCCCCCSc1ccc([C@H]2C[C@]3(C)[C@@H](O)CC[C@H]3[C@@H]3CCc4cc(O)ccc4[C@H]32)cc1 [Example 92]
[2] CN(CC(F)(F)C(F)(F)C(F)(F)F)C(=O)CCCCCCCOc1ccc([C@H]2C[C@]3(C)[C@@H](O)CC[C@H]3[C@@H]3CCc4cc(O)ccc4[C@H]32)cc1 [Example 82]
[3] CCCCN(C)C(=O)CSCCCCCOc1ccc([C@H]2C[C@]3(C)[C@@H](OC(=O)CCC(=O)O)CC[C@H]3[C@@H]3CCc4cc(O)ccc4[C@H]32)cc1 [Example 96]
-- ask Put the items in order so that reported Relative affinity of the bond (RAB), Oestrogen Receptors, 5 Hrs rises from first to last. Give me the labels in the order the question wants.
-- reply 3, 2, 1

These data points were gathered from patent US6790971B1.
